Measured EC50, listed per entry for reference.
- system: NL20 human bronchial epithelial cells expressing human Z-AAT (Homo sapiens, UniProt P01009, E366K)
- Construct: expressed in transfected cells; host or cells: NL20 human bronchial epithelial cells (NL20-SI line, doxycycline added)
- Sequence (P01009 25-418 E366K): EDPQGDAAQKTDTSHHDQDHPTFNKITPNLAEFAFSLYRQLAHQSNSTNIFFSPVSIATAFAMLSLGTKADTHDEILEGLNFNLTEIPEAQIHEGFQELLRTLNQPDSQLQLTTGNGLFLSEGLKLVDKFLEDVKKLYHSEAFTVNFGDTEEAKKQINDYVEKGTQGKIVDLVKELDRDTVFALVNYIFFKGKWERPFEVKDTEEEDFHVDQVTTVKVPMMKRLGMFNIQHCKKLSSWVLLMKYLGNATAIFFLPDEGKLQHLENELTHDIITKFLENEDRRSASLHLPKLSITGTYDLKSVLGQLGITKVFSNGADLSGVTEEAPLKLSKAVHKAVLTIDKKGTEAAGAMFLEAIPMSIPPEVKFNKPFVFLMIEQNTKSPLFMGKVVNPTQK
- method-description: AAT Function Assay (MSD Assay NL20-SI Cell Line)
- Format: cell-based
- assay-conditions: functionally active AAT (AAT-hNE complex) in supernatant of NL20 cells expressing human Z-AAT; read-out: NL20 Func. (EC50)

Here's what some known entries look like.
O=C(O)[C@H]1C[C@@H](c2c(C3CCOCC3)n(-c3ccc(F)c(F)c3)c3cc4cn[nH]c4cc32)C1	> 3 µM
COCC(C)(C)c1c(CCC(N)=O)c2cc3[nH]ncc3cc2n1-c1ccc(F)cc1	> 3 µM
O=C(O)C1CC2(C1)CC(c1c(C3CCOCC3)n(-c3ccc(F)c(F)c3)c3cc4c(Cl)n[nH]c4cc13)C2 (centres unmarked)	< 1.16 µM

// query EC50 value for entry CC(C)(C)c1c(C#N)c2cc3[nH]ncc3cc2n1-c1ccc(F)cc1
> 3 µM

###

- system: NL20 human bronchial epithelial cells expressing human Z-AAT (Homo sapiens, UniProt P01009, E366K)
- Construct: expressed in transfected cells; host or cells: NL20 human bronchial epithelial cells (NL20-SI line, doxycycline added)
- method-description: AAT Function Assay (MSD Assay NL20-SI Cell Line)
- Format: cell-based
- assay-conditions: functionally active AAT (AAT-hNE complex) in supernatant of NL20 cells expressing human Z-AAT; read-out: NL20 Func. (EC50)
pEC50: −log10 of the molar value.
measured-property: pEC50

CCOC(=O)[C@@H]1C[C@@H]1c1c(C(C)C)n(-c2ccc(F)c(C)c2)c2cc3cn[nH]c3cc12 (racemic)	< 5.52
O=C(O)CC1CC(c2c(C3CCOCC3)n(-c3ccc(F)c(Cl)c3)c3cc4cn[nH]c4cc23)C1 (mixture of isomers)	5.52 to 5.94
C=C(C)c1c(CCC(=O)O)c2cc3[nH]ncc3cc2n1-c1ccc(F)cc1	5.52 to 5.94

// query pEC50 value for entry [H][C@]1(C(=O)O)C[C@]2(C1)C[C@]([H])(c1c(C3CCOCC3)n(-c3ccc(F)c(C)c3)c3cc4cn[nH]c4cc31)C2 (single isomer, unassigned)
> 5.94

// query pEC50 value for entry CC(C)c1c(-c2ccc(F)cc2)c2cc3cn[nH]c3cc2n1CCC(=O)O
5.52 to 5.94

// query pEC50 value for entry CC(C)c1c(C23CC(C(=O)O)(C2)C3)c2cc3[nH]ncc3cc2n1-c1ccc(F)cc1
> 5.94

// query pEC50 value for entry Cc1cc(-n2c(C(C)C)c(C(=O)N3CCOCC3)c3cc4[nH]ncc4cc32)ccc1F
< 5.52

// query pEC50 value for entry O=C(O)C1CC2(C1)CC(c1c(C3CCOCC3)n(-c3ccc(F)cc3)c3cc4cn[nH]c4c(F)c13)C2 (single isomer, unassigned) [Compound 137]
> 5.94

// query pEC50 value for entry O=C1CCCC(c2c(C3CCOCC3)n(-c3ccc(F)cc3)c3cc4cn[nH]c4cc23)C1 (racemic)
5.52 to 5.94

// query pEC50 value for entry COCC(C)(C)c1c(CCC(=O)O)c2cc3[nH]ncc3cc2n1-c1ccc(F)cc1
5.52 to 5.94

// query pEC50 value for entry [2H]c1n[nH]c2c([2H])c3c(CC([2H])([2H])C(=O)O)c(C([2H])(C)C)n(-c4ccc(F)cc4)c3c([2H])c12
5.52 to 5.94

// query pEC50 value for entry O=C(O)C1CC(Cc2c(C3CCOCC3)n(-c3ccc(F)c(Cl)c3)c3cc4cn[nH]c4cc23)C1 (single isomer, unassigned) [Compound 80]
> 5.94

// query pEC50 value for entry C=C(C)c1c(C23CC(C(=O)OC)(C2)C3)c2cc3[nH]ncc3cc2n1-c1ccc(F)cc1
< 5.52

// query pEC50 value for entry Cc1cc(-n2c(C3CCOCC3)c([C@H]3C[C@](C)(C(=O)O)C3)c3cc4[nH]ncc4cc32)ccc1F (single isomer, unassigned)
> 5.94

These entries and their values trace back to patent US11623924B2.
